- ASSAY_TARGET: human GIPR (human) (UniProt P48546)
- Sequence (P48546 22-466): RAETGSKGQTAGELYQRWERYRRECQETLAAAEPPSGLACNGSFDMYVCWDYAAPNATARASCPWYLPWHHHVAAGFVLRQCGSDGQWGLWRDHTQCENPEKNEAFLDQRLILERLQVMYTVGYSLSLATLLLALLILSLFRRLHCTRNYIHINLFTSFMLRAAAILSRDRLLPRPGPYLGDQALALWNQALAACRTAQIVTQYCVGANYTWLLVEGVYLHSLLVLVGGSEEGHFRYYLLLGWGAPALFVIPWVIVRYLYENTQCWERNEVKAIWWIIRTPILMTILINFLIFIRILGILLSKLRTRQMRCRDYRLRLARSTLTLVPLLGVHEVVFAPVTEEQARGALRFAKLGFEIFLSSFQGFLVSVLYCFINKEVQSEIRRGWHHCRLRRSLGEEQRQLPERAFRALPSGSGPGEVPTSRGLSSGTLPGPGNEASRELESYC
VALUE_TYPE: CRE-luc reporter, HEK293T cells with the receptor: Emax (fold induction)

>>> meas_value("HTDGMFTSDLTNYLDKMKAKNFVEWLAAIKQQE [Medaka GCRP]")
2.11
>>> meas_value("HSEGTFSSDLTRYLDKMKAKDFVQWLMN [Xenopus GCRP]")
1.95
>>> meas_value("YAEGTFISDYSIAMDKIHQQDFVNWLLAQKGKKNDWKHNITQ [Human GIP]")
5.21
>>> meas_value("HSEGTFTSDFTRYLDKMKAKDFVHWLINT [Chicken GCRP]")
3.03
